target system: T1, Human Clec12B (human, UniProt Q2HXU8 1-276)
T1 construct: also called hClec12B
T1 sequence: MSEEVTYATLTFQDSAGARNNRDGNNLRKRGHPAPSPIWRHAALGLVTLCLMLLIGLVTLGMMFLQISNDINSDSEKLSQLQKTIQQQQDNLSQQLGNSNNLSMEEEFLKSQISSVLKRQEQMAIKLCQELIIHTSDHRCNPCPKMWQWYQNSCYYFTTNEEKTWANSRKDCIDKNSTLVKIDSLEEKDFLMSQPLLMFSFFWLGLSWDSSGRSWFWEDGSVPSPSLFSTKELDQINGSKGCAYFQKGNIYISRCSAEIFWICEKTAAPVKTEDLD
protocol notes: flow, Jurkat, 100 nM Ab
measurement type: MFI normalized to WT
Just the number, please.

{"binder": "KW1.3.12 (antibody, human IgG1, V domains shown) VH: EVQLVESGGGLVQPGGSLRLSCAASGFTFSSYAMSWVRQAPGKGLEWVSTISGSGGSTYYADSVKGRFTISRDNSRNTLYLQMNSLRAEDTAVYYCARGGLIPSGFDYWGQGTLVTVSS VL: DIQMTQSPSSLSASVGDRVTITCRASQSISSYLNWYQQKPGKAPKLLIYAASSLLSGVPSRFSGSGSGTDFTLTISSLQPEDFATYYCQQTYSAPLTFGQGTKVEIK", "MFI normalized to WT": 1.1}
{"binder": "KW7.3.7 (antibody, V domains shown) VH: EVQLVESGGGLVQPGGSLRLSCAASGFTFSSYAMSWVRQAPGKGLEWVSATSGSGGSTYYADSAKGRFTISRDNSKNTLYLQMNSLRAEDTAVYYCARGGYLPDAFDYWGRGTLVTVSS VL: DIQMTQSPSSLSASVGDRVTITCWASQSISSYLNWYQQEPGKAPKLLIYAASSLQSGVPSRFSGSGSGTDFTLTISSLQPEDFATYYCQQTYSTPLTFGQGTKVEIK", "MFI normalized to WT": 1.05}

KM12.2.3 (antibody, human IgG1, V domains shown) VH: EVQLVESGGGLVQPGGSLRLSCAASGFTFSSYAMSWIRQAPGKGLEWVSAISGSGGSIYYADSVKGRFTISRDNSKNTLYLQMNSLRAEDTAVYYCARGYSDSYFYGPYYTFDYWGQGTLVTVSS VL: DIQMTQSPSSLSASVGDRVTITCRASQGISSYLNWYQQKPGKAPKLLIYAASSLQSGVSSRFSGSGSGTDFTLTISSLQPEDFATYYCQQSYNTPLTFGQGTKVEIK has a reported MFI normalized to WT of 1.33

KW1.2.1 (antibody, V domains shown) VH: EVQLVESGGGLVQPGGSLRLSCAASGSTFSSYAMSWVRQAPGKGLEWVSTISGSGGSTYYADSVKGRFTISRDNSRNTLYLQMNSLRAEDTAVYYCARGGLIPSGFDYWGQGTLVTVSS VL: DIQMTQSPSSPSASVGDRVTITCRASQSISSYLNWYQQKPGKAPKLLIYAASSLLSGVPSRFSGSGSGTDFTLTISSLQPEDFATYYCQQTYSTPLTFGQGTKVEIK has a reported MFI normalized to WT of 1.11
